# TARGET SYSTEM: AMPKα1β1γ1 (Homo sapiens, UniProt Q13131+Q9Y478)
# Construct: purchased CARNA 02-113
# Sequence (Q13131 whole entry): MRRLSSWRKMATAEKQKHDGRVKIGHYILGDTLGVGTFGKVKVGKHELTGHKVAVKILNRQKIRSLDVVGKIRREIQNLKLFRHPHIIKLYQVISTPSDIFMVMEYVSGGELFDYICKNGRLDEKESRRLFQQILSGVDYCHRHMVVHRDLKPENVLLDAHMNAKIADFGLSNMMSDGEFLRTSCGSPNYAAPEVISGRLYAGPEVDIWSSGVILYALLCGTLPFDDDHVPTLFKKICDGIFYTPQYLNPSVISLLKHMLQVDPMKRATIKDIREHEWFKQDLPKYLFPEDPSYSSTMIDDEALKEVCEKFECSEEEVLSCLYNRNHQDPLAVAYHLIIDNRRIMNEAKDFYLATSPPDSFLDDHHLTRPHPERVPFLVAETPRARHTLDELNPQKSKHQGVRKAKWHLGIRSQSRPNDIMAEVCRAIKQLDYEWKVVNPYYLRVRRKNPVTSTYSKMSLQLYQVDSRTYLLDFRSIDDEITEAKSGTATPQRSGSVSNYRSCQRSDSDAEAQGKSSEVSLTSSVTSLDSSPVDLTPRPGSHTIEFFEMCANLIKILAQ
# Sequence (Q9Y478 whole entry): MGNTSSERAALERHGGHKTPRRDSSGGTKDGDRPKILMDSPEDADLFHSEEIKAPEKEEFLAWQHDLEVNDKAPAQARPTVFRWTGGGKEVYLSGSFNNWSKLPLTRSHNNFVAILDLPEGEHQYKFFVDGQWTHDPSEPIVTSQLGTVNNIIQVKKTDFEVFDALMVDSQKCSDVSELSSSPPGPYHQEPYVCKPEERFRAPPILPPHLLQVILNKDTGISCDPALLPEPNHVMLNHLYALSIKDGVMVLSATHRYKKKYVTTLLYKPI
# Sequence (P54619 whole entry partner): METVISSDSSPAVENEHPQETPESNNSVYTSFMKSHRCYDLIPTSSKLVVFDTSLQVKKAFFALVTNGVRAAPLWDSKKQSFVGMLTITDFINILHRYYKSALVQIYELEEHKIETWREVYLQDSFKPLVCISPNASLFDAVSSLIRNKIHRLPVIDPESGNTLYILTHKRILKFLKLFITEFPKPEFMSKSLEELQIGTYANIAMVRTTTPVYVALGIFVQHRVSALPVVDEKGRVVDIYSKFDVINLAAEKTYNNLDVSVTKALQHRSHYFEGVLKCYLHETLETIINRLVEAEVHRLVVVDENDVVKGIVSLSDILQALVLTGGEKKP
# PROCEDURE SUMMARY: In vitro assay for AMPK (α1β1γ1) enzyme agonist activity (TR-FRET)
# Type: biochemical
# ASSAY CONTEXT: 1 h, read-out: Top value
# Experimental: Test compounds were dissolved in DMSO to prepare 10 mM stock solution, which was then diluted to the predetermined test concentrations using kinase buffer (50 mM HEPES, 1 mM EDTA, 10 mM MgCl2, 0.01% Brij-35, pH = 7.5). […] The values of samples in each well were read using a microplate reader in TR-FRET mode (excitation wavelength: 320 nm; emission wavelengths: 665 nm and 615 nm). […]

>  <STRUCTURE STRING>
Cn1ccc2cc(-c3cc4c(C(=O)NCC(=O)O)c(O)[nH]c4cc3Cl)ccc21

>  <Emax>
> 100%

$$$$
>  <STRUCTURE STRING>
O=C1Nc2cc(Cl)c(-c3ccc(C4(CO)CC4)cc3)cc2C1=CNCc1ccco1

>  <Emax>
< 50%

$$$$
>  <STRUCTURE STRING>
CNC(=O)C(=O)c1c[nH]c2cc(Cl)c(-c3ccc(C4(CO)CC4)cc3)cc12

>  <Emax>
50 to 70%

$$$$
>  <STRUCTURE STRING>
O=C(NCc1ccco1)c1c[nH]c2cc(Cl)c(-c3ccc(-c4ccccc4O)cc3)cc12

>  <Emax>
50 to 70%

$$$$
>  <STRUCTURE STRING>
O=C(NCc1ccco1)c1c(O)[nH]c2cc(Cl)c(-c3ccc(-c4ccccc4O)cc3)cc12

>  <Emax>
> 100%

$$$$
>  <STRUCTURE STRING>
Cn1ccc2cc(-c3cc4c(C(=O)NCc5ccco5)c(O)[nH]c4cc3Cl)ccc21

>  <Emax>
> 100%

$$$$
>  <STRUCTURE STRING>
O=C(NCC1COC1)c1c[nH]c2cc(Cl)c(-c3ccc(C4(O)CCC4)cc3)cc12

>  <Emax>
50 to 70%

$$$$
>  <STRUCTURE STRING>
CN(C(=O)c1c[nH]c2cc(Cl)c(-c3ccc(C4(CO)CC4)cc3)cc12)c1cc[nH]n1

>  <Emax>
> 100%

$$$$

====

# TARGET SYSTEM: AMPKα1β1γ1 (Homo sapiens, UniProt Q13131+Q9Y478)
# Construct: purchased CARNA 02-113
# PROCEDURE SUMMARY: In vitro assay for AMPK (α1β1γ1) enzyme agonist activity (TR-FRET)
# Type: biochemical
# ASSAY CONTEXT: 1 h, read-out: Top value
molecules and their reported Emax
REPORTED PROPERTY: Emax

>  <STRUCTURE STRING>
O=C(O)C(=O)c1c[nH]c2cc(Cl)c(-c3ccc(-c4ccccc4)cc3)cc12

>  <TARGET SYSTEM>
AMPKα1β1γ1 (Homo sapiens, UniProt Q13131+Q9Y478)

>  <RESULT>
< 50%

$$$$
>  <STRUCTURE STRING>
Cn1ccc2cc(-c3cc4c(C(=O)C(=O)O)c[nH]c4cc3Cl)ccc21

>  <TARGET SYSTEM>
AMPKα1β1γ1 (Homo sapiens, UniProt Q13131+Q9Y478)

>  <RESULT>
70 to 100%

$$$$
>  <STRUCTURE STRING>
O=C(NCc1cnoc1)c1c[nH]c2cc(Cl)c(-c3ccc(C4(O)CCC4)cc3)cc12

>  <TARGET SYSTEM>
AMPKα1β1γ1 (Homo sapiens, UniProt Q13131+Q9Y478)

>  <RESULT>
> 100%

$$$$
>  <STRUCTURE STRING>
O=C(O)C(=O)c1c[nH]c2cc(Cl)c(-c3ccc(C4(CO)CC4)cc3)cc12

>  <TARGET SYSTEM>
AMPKα1β1γ1 (Homo sapiens, UniProt Q13131+Q9Y478)

>  <RESULT>
> 100%

$$$$
>  <STRUCTURE STRING>
O=C(Nc1ccn[nH]1)c1c[nH]c2cc(Cl)c(-c3ccc(C4(CO)CC4)cc3)cc12

>  <TARGET SYSTEM>
AMPKα1β1γ1 (Homo sapiens, UniProt Q13131+Q9Y478)

>  <RESULT>
> 100%

$$$$
>  <STRUCTURE STRING>
O=C(Nc1cc[nH]n1)c1c[nH]c2cc(Cl)c(-c3ccc(C4(O)CCC4)cc3)cc12

>  <TARGET SYSTEM>
AMPKα1β1γ1 (Homo sapiens, UniProt Q13131+Q9Y478)

>  <RESULT>
> 100%

$$$$
>  <STRUCTURE STRING>
O=C(NCc1ccco1)c1c(O)[nH]c2cc(Cl)c(-c3ccc(C4(CO)CC4)cc3)cc12

>  <TARGET SYSTEM>
AMPKα1β1γ1 (Homo sapiens, UniProt Q13131+Q9Y478)

>  <RESULT>
> 100%

$$$$
>  <STRUCTURE STRING>
O=C(NCc1cccs1)c1c[nH]c2cc(Cl)c(-c3ccc(C4(CO)CC4)cc3)cc12

>  <TARGET SYSTEM>
AMPKα1β1γ1 (Homo sapiens, UniProt Q13131+Q9Y478)

>  <RESULT>
> 100%

$$$$
>  <STRUCTURE STRING>
O=C(NCc1ccno1)c1c[nH]c2cc(Cl)c(-c3ccc(C4(O)CCC4)cc3)cc12

>  <TARGET SYSTEM>
AMPKα1β1γ1 (Homo sapiens, UniProt Q13131+Q9Y478)

>  <RESULT>
70 to 100%

$$$$
>  <STRUCTURE STRING>
O=C(NCc1ccccn1)c1c[nH]c2cc(Cl)c(-c3ccc(C4(O)CCC4)cc3)cc12

>  <TARGET SYSTEM>
AMPKα1β1γ1 (Homo sapiens, UniProt Q13131+Q9Y478)

>  <RESULT>
> 100%

$$$$
>  <STRUCTURE STRING>
O=C(O)C(=O)c1c[nH]c2cc(Cl)c(-c3ccc(C4(O)CCC4)cc3)nc12

>  <TARGET SYSTEM>
AMPKα1β1γ1 (Homo sapiens, UniProt Q13131+Q9Y478)

>  <RESULT>
50 to 70%

$$$$
>  <STRUCTURE STRING>
O=C(NCc1nnn[nH]1)c1c[nH]c2cc(Cl)c(-c3ccc(C4(CO)CC4)cc3)cc12

>  <TARGET SYSTEM>
AMPKα1β1γ1 (Homo sapiens, UniProt Q13131+Q9Y478)

>  <RESULT>
> 100%

$$$$
>  <STRUCTURE STRING>
O=C(NCc1ncco1)c1c[nH]c2cc(Cl)c(-c3ccc(C4(CO)CC4)cc3)cc12

>  <TARGET SYSTEM>
AMPKα1β1γ1 (Homo sapiens, UniProt Q13131+Q9Y478)

>  <RESULT>
70 to 100%

$$$$
>  <STRUCTURE STRING>
COC(=O)C(=O)c1c[nH]c2cc(Cl)c(-c3ccc(C4(CO)CC4)cc3)cc12

>  <TARGET SYSTEM>
AMPKα1β1γ1 (Homo sapiens, UniProt Q13131+Q9Y478)

>  <RESULT>
70 to 100%

$$$$
>  <STRUCTURE STRING>
O=C(Nc1cc[nH]n1)c1c[nH]c2cc(Cl)c(-c3ccc(-c4ccccc4O)cc3)cc12

>  <TARGET SYSTEM>
AMPKα1β1γ1 (Homo sapiens, UniProt Q13131+Q9Y478)

>  <RESULT>
> 100%

$$$$
>  <STRUCTURE STRING>
O=C(NCc1ccco1)c1c[nH]c2cc(Cl)c(-c3ccc(C4(CO)CC4)cc3)cc12

>  <TARGET SYSTEM>
AMPKα1β1γ1 (Homo sapiens, UniProt Q13131+Q9Y478)

>  <RESULT>
> 100%

$$$$
